Target: T1, mouse CTGF (Abbexa) (mouse, UniProt P29268 26-348, limits assumed)
T1 construct: also called Murine CTGF; mCTGF
T1 sequence (looked up): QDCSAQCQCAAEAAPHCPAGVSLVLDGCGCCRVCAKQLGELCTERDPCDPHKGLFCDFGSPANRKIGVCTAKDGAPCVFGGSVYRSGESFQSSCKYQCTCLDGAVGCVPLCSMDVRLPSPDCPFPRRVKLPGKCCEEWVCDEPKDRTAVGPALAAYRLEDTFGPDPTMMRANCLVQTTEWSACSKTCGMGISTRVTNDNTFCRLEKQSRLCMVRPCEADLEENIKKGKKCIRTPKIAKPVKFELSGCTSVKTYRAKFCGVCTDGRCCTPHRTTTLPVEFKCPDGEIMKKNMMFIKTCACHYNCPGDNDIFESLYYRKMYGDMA
Assay: SPR (Biacore)
value-kind: koff
Put down the number, then write its unit next to it.

These solved cases illustrate the format of a correct answer.
binder	koff
lipocalin mutein of SEQ ID NO: 12 (designed binder, also called hNGAL mutein; not shown: C-terminal His-tag) QDSTSDLIPAPPLSKVPLQQNFQDNQFQGKWYVVGLAGNAILREDKYPAKMFATIYELKEDKSYDVTSVRFENKSCVYTIKTFVPGSQPGEFTTGNIKSAPGQTSTLVRVVSTNYNQHAMVFFKHVSQNREFFVITLYGRTKELTSELKENFIRFSKSLGLPENHIVFPVPIDQCIDG	0.000128 s⁻¹
lipocalin mutein of SEQ ID NO: 21 (designed binder, also called hNGAL mutein; not shown: C-terminal His-tag) QDSTSDLIPAPPLSKVPLQQNFQDNQFQGKWYVVGLAGNAILREDKQPAKMFATIYELKEDKSYDVTSVRFEAKSCSYTIKTFVPGSQPGEFTAGNIKSAPGQTSTLVRVVSTNYNQHAMVFFKAVRGARESFNIALYGRTKELTSELKENFIRFSKSLGLPENHIVFPVPIDQCIDG	3.94e-05 s⁻¹
lipocalin mutein of SEQ ID NO: 33 (designed binder, also called hNGAL mutein; not shown: C-terminal His-tag) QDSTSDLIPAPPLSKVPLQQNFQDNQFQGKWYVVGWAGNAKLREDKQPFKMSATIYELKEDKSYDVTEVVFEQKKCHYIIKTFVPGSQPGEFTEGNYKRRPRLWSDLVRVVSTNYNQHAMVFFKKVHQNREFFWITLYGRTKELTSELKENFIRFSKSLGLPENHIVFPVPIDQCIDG	5.29e-05 s⁻¹

Return koff (reported value) for this binder: lipocalin mutein of SEQ ID NO: 35 (designed binder, also called hNGAL mutein; not shown: C-terminal His-tag) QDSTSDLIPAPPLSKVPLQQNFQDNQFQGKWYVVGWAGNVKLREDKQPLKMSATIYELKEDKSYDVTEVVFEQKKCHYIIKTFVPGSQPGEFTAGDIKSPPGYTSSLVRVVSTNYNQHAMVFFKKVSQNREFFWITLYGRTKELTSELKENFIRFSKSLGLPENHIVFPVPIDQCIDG
0.000287 s⁻¹

Return koff (reported value) for this binder: lipocalin mutein of SEQ ID NO: 8 (designed binder, also called hNGAL mutein; not shown: C-terminal His-tag) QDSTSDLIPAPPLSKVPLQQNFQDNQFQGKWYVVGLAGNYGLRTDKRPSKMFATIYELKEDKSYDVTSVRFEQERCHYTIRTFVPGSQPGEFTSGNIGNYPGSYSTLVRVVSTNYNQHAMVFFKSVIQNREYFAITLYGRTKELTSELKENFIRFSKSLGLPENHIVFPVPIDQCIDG
0.000131 s⁻¹

Return koff (reported value) for this binder: lipocalin mutein of SEQ ID NO: 34 (designed binder, also called hNGAL mutein) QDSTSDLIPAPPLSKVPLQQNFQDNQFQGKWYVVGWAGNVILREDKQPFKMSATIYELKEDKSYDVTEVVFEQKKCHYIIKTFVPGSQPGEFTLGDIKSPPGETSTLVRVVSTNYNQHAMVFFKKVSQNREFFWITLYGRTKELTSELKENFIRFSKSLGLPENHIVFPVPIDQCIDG
0.00286 s⁻¹
